system: A498 renal; assay: NCI-60 one-dose screen, 48 h; settings: 10 µM unless noted
The panel holds about 83,000 compounds, 20% with a hit somewhere; the sample as a whole holds those more often. Active and inactive are the calls of the source. How the source made its calls: active means growth percent below 10; inactive means the rest.
Return exactly one item of active, inactive

Please review the entries below; each comes with its answer.
Query block: What is the recorded call for this molecule in the test? CNC(=O)c1cc(N2CCc3cc(NC(=O)Nc4ccc(Cl)c(C(F)(F)F)c4)ccc32)ccn1
Result block: inactive

Query block: What is the recorded call for this molecule in the test? CC(=O)N(C)C1CCc2c(sc(NC(=O)c3ccc(C(C)(C)C)cc3)c2C(N)=O)C1 (stereo unspecified)
Result block: inactive

Query block: What is the recorded call for this molecule in the test? Cc1nc2ncc(-c3ccc4ncnc(NCc5ccccc5)c4c3)cc2[nH]1
Result block: active

Query block: What is the recorded call for this molecule in the test? NC(=O)c1c(NC(=O)c2ccc(F)cc2F)sc2c1CCC(=O)C2
Result block: inactive

Query block: What is the recorded call for this molecule in the test? CCCCCc1ccc(S(=O)(=O)Nc2cccc(-c3csc(NC(=O)CCCCCN4CCN(C)CC4)n3)c2)cc1
Result block: inactive

Continuing:
Query block: What is the recorded call for this molecule in the test? CCNC(=O)Oc1ccc(/C(=C(/C)c2ccccc2)c2ccc(OCCN3CCCCCC3)cc2)cc1
Result block: inactive

* * *

growth: recorded values
test system: UACC-257 melanoma; assay: NCI-60 one-dose screen, 48 h (100 = growth as untreated, 0 = no growth, -100 = all killed); conditions: 10 µM unless noted
The panel holds about 83,000 compounds, 20% with a hit somewhere; the sample as a whole holds those more often.
Your answer is read as %, so omit the unit and give the number.

Take a look at these entries with their results.
Query block: Quick check: growth of C=CCn1c(SCC(=O)Nc2ccc(C(=O)/C=C/c3cccc([N+](=O)[O-])c3)cc2)nnc1-c1c[nH]c2ccccc12 ?
Result block: 103

Query block: Quick check: growth of COc1ccc(-c2cc(-c3ccc(Cl)cc3)c(C#N)c(=O)n2Cc2ccc(C(=O)O)cc2)cc1 ?
Result block: 83.8

Query block: Quick check: growth of CCc1cccc2c3c(sc12)C(c1ccc(Cl)cc1)C(C#N)=C(/N=C/c1ccc(Cl)cc1)O3 (centres undefined) ?
Result block: 60.4

Query block: Quick check: growth of Cn1cc(-c2nc(N)nnc2-c2c[nH]c3ccccc23)c2cc(Br)ccc21 ?
Result block: 72.1

Query block: Quick check: growth of Cn1ccnc1C(=O)/C=C/C=C/c1ccc(C(=O)Nc2ccc(F)cc2)cc1 ?
Result block: 46.8

Continuing:
Query block: Quick check: growth of O=[N+]([O-])c1cc(/C=N/Nc2nc(N/N=C/c3ccc(Cl)c([N+](=O)[O-])c3)nc(N3CCCCC3)n2)ccc1Cl ?
Result block: 51.1

Query block: Quick check: growth of COC(=O)c1[nH]nc2c1C1(C(=O)c3cccc4cccc1c34)C(C#N)=C(N)O2 (centres undefined) ?
Result block: 103

Query block: Quick check: growth of Cc1ccc(-n2cc(/C=N/NC(=O)c3nc(N)n[nH]3)c(-c3ccc(S(C)(=O)=O)cc3)n2)cc1 ?
Result block: 99.3

Query block: Quick check: growth of Cn1ccnc1C(=O)/C=C/c1ccc(CNC(=O)c2ccc(Cl)cc2)cc1 ?
Result block: 67.9
